Target: platelet lipoxygenase (Homo sapiens, UniProt P18054)
Construct: metabolism of radioactively labelled arachidonic acid by washed human platelets; endogenous in cells; host or cells: washed human platelets
Sequence (P18054 whole entry): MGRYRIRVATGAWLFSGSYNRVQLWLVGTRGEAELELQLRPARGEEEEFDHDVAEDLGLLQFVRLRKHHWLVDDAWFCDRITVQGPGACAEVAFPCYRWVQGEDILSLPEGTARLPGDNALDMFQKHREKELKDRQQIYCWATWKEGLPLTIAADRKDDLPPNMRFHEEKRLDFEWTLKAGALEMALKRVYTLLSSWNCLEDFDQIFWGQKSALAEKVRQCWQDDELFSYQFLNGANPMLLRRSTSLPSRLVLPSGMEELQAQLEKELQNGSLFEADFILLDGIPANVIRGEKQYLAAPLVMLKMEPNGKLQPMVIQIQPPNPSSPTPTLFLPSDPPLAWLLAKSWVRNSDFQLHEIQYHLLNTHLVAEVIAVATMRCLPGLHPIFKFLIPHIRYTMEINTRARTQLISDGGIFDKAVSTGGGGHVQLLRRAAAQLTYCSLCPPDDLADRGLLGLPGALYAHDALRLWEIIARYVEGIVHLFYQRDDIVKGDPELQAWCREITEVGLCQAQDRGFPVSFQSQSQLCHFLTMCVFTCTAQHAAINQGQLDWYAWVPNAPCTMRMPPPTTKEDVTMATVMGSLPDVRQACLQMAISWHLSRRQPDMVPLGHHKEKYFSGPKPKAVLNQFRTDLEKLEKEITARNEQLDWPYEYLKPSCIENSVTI
Assay: Inhibition of the platelet lipoxygenase (synthesis of HETE), metabolism of radioactively labelled arachidonic acid by washed human platelets
Type: cell-based
Settings: in vitro
Reported Minimum effective inhibitory concentration (at least 50% inhibition) values are given for each entry in this list.
Write down the numeric answer in g/mL and omit the unit.

// solved cases for Minimum effective inhibitory concentration (at least 50% inhibition) follow
The compound c1ccc2c(c1)ncn2SC1CCCCC1 [Example 80, 1-cyclohexylthiobenzimidazole] showed Minimum effective inhibitory concentration (at least 50% inhibition) equal to 1e-05

# compound O=c1n(Sc2ccccc2)c(=O)n2c(=O)n(Sc3ccccc3)c(=O)n12 [Example 18] ; its Minimum effective inhibitory concentration (at least 50% inhibition) = 3e-06

Looking up O=C1CCCCCN1Sc1ccc(Cl)cc1 [Example 56] , I see its Minimum effective inhibitory concentration (at least 50% inhibition) listed as 3e-06

Record O=C1c2c(Cl)c(Cl)c(Cl)c(Cl)c2C(=O)N1Sc1ccccc1 [Example 42] . Reported Minimum effective inhibitory concentration (at least 50% inhibition): 3e-06

For O=C1c2ccccc2C(=O)N1SC1CCCCC1 [Example 32] the compound record lists Minimum effective inhibitory concentration (at least 50% inhibition) as 3e-06

Next compound, please.
Briefly, Minimum effective inhibitory concentration (at least 50% inhibition) measured for Clc1ccc(Sn2cccn2)cc1 [Example 75] : 3e-06
